// reported Emax for each item listed
system.name: GluN2B glutamate receptors (Homo sapiens (Human), UniProt Q05586+Q13224)
Sequence (Q13224 27-1484, other chains not shown): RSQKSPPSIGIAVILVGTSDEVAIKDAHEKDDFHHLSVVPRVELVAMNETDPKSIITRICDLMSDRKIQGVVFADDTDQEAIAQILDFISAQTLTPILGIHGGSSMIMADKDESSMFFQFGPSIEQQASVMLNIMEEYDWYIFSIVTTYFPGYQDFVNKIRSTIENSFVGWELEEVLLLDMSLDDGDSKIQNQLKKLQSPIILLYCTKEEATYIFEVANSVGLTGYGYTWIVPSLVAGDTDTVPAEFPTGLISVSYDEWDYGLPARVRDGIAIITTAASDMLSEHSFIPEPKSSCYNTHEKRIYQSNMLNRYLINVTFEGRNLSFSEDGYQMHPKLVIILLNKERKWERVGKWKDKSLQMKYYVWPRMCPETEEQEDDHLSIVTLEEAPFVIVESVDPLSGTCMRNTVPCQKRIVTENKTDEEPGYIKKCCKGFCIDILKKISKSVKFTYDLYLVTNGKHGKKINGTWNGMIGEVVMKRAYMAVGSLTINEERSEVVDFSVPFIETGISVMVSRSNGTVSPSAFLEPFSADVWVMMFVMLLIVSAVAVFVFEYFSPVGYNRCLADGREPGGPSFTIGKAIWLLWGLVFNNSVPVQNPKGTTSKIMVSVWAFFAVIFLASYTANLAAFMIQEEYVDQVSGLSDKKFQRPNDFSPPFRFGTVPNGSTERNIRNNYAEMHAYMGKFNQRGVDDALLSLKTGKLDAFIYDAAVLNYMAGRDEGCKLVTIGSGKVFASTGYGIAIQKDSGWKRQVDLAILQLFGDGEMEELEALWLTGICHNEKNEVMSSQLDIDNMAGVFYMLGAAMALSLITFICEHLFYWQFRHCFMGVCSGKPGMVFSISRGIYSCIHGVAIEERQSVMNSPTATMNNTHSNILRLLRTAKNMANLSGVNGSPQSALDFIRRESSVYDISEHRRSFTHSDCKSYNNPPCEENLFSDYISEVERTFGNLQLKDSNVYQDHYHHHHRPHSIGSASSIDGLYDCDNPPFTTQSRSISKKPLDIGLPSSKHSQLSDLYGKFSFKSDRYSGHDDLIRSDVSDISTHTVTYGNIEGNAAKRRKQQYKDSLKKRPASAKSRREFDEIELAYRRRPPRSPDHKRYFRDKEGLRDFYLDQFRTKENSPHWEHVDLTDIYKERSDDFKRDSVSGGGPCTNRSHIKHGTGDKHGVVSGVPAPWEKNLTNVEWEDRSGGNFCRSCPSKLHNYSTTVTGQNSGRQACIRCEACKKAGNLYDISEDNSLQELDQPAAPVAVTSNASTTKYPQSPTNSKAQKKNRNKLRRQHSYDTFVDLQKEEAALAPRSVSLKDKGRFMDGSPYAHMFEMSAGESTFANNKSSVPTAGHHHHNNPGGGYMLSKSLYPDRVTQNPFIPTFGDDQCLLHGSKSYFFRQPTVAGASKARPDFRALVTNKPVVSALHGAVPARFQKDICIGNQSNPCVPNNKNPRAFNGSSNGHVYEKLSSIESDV
test.description: Whole-cell patch clamp of mammalian cells (Ionworks Barracuda), positive allosteric modulation, GluN2B
Assay type: cell-based
applied.conditions: % potentiation of current elicited with EC20 L-glutamate and 30 μM glycine; read-out: Avg Emax 2B (%)
reported.metric: Emax (%)

{"columns": ["structure.as.smiles", "system.name", "display.unit", "experimental.value"],
 "data": [
  ["CC[C@]1(O)CC[C@H]2[C@@H](CC[C@@H]3[C@@H]2CC[C@]2(C)[C@@H]([C@H](C)CC[C@H](O)C(C)C)CC[C@@H]32)C1", "GluN2B glutamate receptors (Homo sapiens (Human), UniProt Q05586+Q13224)", "%", 254],
  ["CC[C@]1(O)CC[C@H]2C(=CC[C@@H]3[C@@H]2CC[C@]2(C)[C@@H]([C@H](C)CCCC(C)(C)O)CC[C@@H]32)C1", "GluN2B glutamate receptors (Homo sapiens (Human), UniProt Q05586+Q13224)", "%", 192],
  ["CC[C@]1(O)CC[C@H]2C(=CC[C@@H]3[C@@H]2CC[C@]2(C)[C@@H]([C@H](C)CCC[C@@H](O)C(C)(C)C)CC[C@@H]32)C1", "GluN2B glutamate receptors (Homo sapiens (Human), UniProt Q05586+Q13224)", "%", 113],
  ["CC[C@]1(O)CC[C@H]2C(=CC[C@@H]3[C@@H]2CC[C@]2(C)[C@@H]([C@H](C)CCCC4(O)CC4)CC[C@@H]32)C1", "GluN2B glutamate receptors (Homo sapiens (Human), UniProt Q05586+Q13224)", "%", 246],
  ["CC[C@H]1CC[C@](O)(CC[C@@H](C)[C@H]2CC[C@H]3[C@@H]4CC[C@H]5C[C@](O)(C(F)(F)F)CC[C@]5(C)[C@H]4CC[C@]23C)CC1", "GluN2B glutamate receptors (Homo sapiens (Human), UniProt Q05586+Q13224)", "%", 10.4]
]}

Every entry's value here was drawn from patent US11149054B2.
